Measured values drawn from patent US10174032B2 for this set.

Biological target: UniProt:P48736
Measured quantity: IC50 (µM)

INSERT INTO results (molecule, system_name, endpoint_result) VALUES
  ('O=c1nc(N2CCOCC2)oc2c(-c3ccccc3)csc12 [Compound 3]', 'UniProt:P48736', 5.5);

---

Measured inhibition at 0.3 µM, listed per entry.
Biological target: PI3K-alpha (Homo sapiens, UniProt P42336)
Sequence (P42336 whole entry, species assumed): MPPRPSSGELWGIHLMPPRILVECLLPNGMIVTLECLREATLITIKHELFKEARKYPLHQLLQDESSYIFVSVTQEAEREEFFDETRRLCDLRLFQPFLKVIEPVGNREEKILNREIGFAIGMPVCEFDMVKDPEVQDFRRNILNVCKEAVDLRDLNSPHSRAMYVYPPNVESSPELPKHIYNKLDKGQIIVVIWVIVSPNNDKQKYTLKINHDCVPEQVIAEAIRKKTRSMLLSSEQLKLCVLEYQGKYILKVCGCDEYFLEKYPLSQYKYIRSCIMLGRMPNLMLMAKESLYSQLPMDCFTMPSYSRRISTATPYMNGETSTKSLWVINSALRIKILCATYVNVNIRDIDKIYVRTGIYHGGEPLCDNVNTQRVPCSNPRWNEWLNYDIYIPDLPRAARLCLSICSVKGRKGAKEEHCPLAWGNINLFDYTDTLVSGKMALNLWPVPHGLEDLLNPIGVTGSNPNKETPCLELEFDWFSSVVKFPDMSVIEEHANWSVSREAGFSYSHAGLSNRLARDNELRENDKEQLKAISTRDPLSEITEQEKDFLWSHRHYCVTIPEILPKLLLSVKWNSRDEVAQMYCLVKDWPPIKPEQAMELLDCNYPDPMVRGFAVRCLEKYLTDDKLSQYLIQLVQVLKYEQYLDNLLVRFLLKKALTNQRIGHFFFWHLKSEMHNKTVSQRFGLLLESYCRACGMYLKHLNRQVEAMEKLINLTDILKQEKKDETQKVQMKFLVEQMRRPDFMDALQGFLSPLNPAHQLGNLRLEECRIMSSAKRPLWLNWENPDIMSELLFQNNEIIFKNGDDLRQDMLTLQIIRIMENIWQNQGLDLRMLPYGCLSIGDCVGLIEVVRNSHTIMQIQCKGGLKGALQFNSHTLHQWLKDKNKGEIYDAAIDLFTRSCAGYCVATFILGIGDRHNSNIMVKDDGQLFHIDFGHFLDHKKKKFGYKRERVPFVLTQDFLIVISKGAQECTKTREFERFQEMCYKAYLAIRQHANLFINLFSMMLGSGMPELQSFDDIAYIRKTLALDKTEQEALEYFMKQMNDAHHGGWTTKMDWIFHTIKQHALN
Sequence (P27986 whole entry partner, species assumed): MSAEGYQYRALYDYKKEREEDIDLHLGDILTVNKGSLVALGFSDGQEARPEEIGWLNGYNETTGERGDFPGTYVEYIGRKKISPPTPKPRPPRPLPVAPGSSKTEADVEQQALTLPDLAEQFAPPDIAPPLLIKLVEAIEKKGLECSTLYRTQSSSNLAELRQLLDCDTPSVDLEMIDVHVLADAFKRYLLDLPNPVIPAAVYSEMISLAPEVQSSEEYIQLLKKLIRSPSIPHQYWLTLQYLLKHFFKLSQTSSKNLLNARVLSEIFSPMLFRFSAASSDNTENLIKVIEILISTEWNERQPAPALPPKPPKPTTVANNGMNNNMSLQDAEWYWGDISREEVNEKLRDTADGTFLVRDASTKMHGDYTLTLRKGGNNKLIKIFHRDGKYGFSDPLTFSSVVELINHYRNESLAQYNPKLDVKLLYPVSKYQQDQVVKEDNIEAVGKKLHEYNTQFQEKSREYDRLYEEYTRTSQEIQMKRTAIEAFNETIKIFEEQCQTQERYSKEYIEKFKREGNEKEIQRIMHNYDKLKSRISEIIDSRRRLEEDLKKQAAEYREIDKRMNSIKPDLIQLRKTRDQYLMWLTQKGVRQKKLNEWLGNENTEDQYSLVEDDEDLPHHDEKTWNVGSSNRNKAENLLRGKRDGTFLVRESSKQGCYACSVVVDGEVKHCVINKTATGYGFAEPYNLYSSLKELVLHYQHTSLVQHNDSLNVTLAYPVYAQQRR
Assay: Kinase inhibition assay, P-33 labelled ATP phosphate transfer, PI3K-alpha
Assay type: biochemical
Settings: read-out: PI3K-alpha (% Inh at 300 nM)
Measured quantity: inhibition at 0.3 µM (%)

INSERT INTO results (compound, endpoint_result) VALUES
  ('Cc1nc2c(=O)nc(N3CCOCC3)[nH]c2n1-c1ccc(F)cc1 [Compound 30]', 4.7),
  ('Nc1ccc(-c2csc3c(=O)nc(N4CCOCC4)oc23)cc1 [Compound 17]', 22),
  ('O=c1nc(N2CCOCC2)oc2c(-c3cccnc3)csc12 [Compound 18]', 0),
  ('CCOC(=O)Cn1ncc2c(=O)nc(N3CCOCC3)[nH]c21 [Compound 24]', 6.6),
  ('O=c1nc(N2CCOCC2)[nH]c2c1cnn2-c1ccccn1 [Compound 25]', 6.6);

---

Target: PI3K-alpha (Homo sapiens, UniProt P42336)
Experiment: Kinase inhibition assay, P-33 labelled ATP phosphate transfer, PI3K-alpha
Assay type: biochemical
Details: read-out: PI3K-alpha (% Inh at 300 nM)
Record yes (1) whenever inhibition at 0.3 µM is at 20% or higher; record no (0) when lower.

INSERT INTO assay_data (input_smiles, class_assignment) VALUES
  ('Cc1nc2c(=O)nc(N3CCOCC3)[nH]c2n1-c1ccc2[nH]ccc2c1', 'no (0)'),
  ('O=c1nc(N2CCOCC2)[nH]c2c1cnn2-c1ccccc1', 'no (0)'),
  ('O=c1nc(N2CCOCC2)oc2c(-c3ccoc3)csc12', 'no (0)'),
  ('O=c1nc(N2CCOCC2)[nH]c2c1cnn2-c1ccc2c(c1)OCCO2', 'yes (1)'),
  ('COc1cccc(-c2csc3c(=O)nc(N4CCOCC4)oc23)c1', 'no (0)');

---

The following compounds are listed with their measured inhibition at 10 µM values.
Molecular target: PLK-1 (Homo sapiens)
Sequence (P53350 whole entry, species assumed): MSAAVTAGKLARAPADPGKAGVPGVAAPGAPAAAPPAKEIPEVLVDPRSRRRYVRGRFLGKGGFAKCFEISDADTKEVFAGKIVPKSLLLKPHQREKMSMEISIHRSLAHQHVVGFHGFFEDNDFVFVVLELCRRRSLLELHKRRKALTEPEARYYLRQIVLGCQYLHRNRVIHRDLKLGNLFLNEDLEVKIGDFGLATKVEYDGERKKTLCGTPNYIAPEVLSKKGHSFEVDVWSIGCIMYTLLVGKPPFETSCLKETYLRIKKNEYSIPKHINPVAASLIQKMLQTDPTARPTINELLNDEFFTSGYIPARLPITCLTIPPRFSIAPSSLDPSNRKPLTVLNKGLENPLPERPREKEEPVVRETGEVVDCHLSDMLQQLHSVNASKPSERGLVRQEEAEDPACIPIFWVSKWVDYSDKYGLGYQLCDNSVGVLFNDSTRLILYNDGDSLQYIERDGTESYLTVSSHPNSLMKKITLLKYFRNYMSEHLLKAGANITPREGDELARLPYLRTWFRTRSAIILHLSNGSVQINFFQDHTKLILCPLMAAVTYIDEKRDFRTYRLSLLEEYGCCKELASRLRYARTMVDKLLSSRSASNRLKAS
Test: Kinase inhibition assay, P-33 labelled ATP phosphate transfer, PLK-1
Assay type: biochemical
Settings: read-out: PLK-1(% Inh at 10 μM)
Measured quantity: inhibition at 10 µM

INSERT INTO results (input_smiles, endpoint_result) VALUES
  ('O=c1nc(N2CCOCC2)[nH]c2c1cnn2CCO', '3.3%'),
  ('O=c1nc(N2CCOCC2)[nH]c2c1cnn2-c1ccccn1', '2.6%'),
  ('O=c1nc(N2CCOCC2)[nH]c2c1cnn2C1CCCCC1', '3.4%'),
  ('CCOC(=O)Cn1ncc2c(=O)nc(N3CCOCC3)[nH]c21', '7.5%'),
  ('O=c1nc(N2CCOCC2)[nH]c2c1cnn2Cc1ccccc1', '4.9%');

---

Molecular target: BRD4 (Homo sapiens)
Measured quantity: IC50

INSERT INTO measurements (input_smiles, endpoint_result) VALUES
  ('CC[C@H](Nc1ncnc2[nH]cnc12)c1nc2cccc(F)c2c(=O)n1-c1ccccc1', '> 50 µM');

---

Biological target: PI3K-gamma (Homo sapiens, UniProt P48736)
Sequence (P48736 whole entry, species assumed): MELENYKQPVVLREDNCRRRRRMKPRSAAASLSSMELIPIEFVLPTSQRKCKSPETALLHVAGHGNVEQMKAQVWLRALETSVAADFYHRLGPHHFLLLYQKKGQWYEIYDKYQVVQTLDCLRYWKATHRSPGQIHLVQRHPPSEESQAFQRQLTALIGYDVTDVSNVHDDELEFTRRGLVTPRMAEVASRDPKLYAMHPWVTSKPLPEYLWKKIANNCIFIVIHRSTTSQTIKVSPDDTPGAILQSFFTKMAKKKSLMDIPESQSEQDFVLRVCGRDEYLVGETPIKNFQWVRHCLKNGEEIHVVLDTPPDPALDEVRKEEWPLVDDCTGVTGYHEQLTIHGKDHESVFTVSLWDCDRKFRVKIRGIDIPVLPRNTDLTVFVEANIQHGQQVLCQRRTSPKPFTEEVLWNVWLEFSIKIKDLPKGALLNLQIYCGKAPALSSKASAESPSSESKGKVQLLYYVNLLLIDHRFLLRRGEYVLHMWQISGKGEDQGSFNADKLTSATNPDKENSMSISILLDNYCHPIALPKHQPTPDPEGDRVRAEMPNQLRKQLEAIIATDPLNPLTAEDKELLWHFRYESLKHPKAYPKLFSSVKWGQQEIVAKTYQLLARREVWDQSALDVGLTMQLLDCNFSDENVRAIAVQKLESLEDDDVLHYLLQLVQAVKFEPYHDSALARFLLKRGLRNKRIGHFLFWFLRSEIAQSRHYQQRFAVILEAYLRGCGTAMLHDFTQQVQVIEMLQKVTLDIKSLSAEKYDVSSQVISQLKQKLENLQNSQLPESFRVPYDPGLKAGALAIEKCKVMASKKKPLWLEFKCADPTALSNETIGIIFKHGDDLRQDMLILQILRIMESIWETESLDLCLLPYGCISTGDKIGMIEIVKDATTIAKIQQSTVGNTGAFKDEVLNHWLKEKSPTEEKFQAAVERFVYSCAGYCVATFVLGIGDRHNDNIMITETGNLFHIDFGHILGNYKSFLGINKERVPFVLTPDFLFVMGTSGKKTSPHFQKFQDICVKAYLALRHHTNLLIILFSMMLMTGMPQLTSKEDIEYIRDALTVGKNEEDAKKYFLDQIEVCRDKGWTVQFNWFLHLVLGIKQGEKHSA
Experiment: Kinase inhibition assay, P-33 labelled ATP phosphate transfer, PI3K-gamma
Format: biochemical
Settings: read-out: PI3K-gamma(% Inh at 10 μM)
Excerpt: The assays determined the amount of radioactive phosphate transferred from P-33 labelled ATP to the substrate by the enzyme in the presence of various concentrations of the inhibitor test compounds. […] A SpectraMax Plus spectrophotometric plate reader (Molecular Devices, Sunnydale, Calif.) was used to measure the optical density signal for pAKT at 450 nm (OD450 nm). The pAKT OD450 nm readings were normalized by total protein amount in the cell lysates determined by standard methods. […]
Measured quantity: inhibition at 10 µM (%)

INSERT INTO results (input_smiles, system_name, endpoint_result) VALUES
  ('O=c1nc(N2CCOCC2)[nH]c2c1cnn2CCO', 'PI3K-gamma (Homo sapiens, UniProt P48736)', 0.6),
  ('O=c1nc(N2CCOCC2)[nH]c2c1cnn2Cc1ccccc1', 'PI3K-gamma (Homo sapiens, UniProt P48736)', 15),
  ('O=c1nc(N2CCOCC2)[nH]c2c1cnn2-c1ccccn1', 'PI3K-gamma (Homo sapiens, UniProt P48736)', 35),
  ('O=c1nc(N2CCOCC2)[nH]c2c1cnn2-c1ccc2c(c1)OCCO2', 'PI3K-gamma (Homo sapiens, UniProt P48736)', 48),
  ('CCOC(=O)Cn1ncc2c(=O)nc(N3CCOCC3)[nH]c21', 'PI3K-gamma (Homo sapiens, UniProt P48736)', 14),
  ('O=c1nc(N2CCOCC2)[nH]c2c1cnn2-c1ccccc1', 'PI3K-gamma (Homo sapiens, UniProt P48736)', 8),
  ('O=c1nc(N2CCOCC2)[nH]c2c1cnn2C1CCCCC1', 'PI3K-gamma (Homo sapiens, UniProt P48736)', 4.8);

---

Biological target: PI3K-delta (Homo sapiens, UniProt O00329)
Sequence (O00329 whole entry, species assumed): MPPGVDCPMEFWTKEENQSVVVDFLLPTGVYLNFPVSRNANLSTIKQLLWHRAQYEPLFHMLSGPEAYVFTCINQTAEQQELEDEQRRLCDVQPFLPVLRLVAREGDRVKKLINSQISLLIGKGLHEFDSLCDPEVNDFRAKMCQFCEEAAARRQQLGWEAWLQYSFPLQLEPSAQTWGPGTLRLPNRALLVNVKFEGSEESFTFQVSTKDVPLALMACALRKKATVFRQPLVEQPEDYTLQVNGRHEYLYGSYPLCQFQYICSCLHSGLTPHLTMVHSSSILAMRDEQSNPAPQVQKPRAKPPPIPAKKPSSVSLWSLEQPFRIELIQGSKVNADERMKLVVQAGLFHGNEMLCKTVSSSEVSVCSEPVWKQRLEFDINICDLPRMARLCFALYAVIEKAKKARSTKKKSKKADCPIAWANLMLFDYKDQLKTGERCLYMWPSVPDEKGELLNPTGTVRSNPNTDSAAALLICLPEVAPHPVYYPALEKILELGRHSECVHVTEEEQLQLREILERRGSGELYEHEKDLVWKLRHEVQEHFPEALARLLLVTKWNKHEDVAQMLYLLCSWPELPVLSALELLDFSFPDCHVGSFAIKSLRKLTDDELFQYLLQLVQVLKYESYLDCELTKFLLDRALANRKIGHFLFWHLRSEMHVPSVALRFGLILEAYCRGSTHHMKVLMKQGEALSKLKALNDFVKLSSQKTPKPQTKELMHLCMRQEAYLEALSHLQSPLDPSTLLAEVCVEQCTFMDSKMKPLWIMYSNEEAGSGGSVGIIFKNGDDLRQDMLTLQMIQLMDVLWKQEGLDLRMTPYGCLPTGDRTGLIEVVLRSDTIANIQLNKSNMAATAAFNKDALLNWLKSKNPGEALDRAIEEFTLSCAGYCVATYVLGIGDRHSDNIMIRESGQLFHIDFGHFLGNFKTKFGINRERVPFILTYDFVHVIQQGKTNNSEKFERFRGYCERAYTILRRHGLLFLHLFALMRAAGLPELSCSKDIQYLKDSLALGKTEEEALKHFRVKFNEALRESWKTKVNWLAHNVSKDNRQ
Sequence (P27986 whole entry partner, species assumed): as the sequence (P27986 whole entry partner, species assumed) above
Assay: Kinase inhibition assay, P-33 labelled ATP phosphate transfer, PI3K-delta
Format: biochemical
Conditions: read-out: PI3K-delta(% Inh at 300 nM)
Source text: The assays determined the amount of radioactive phosphate transferred from P-33 labelled ATP to the substrate by the enzyme in the presence of various concentrations of the inhibitor test compounds. […] A SpectraMax Plus spectrophotometric plate reader (Molecular Devices, Sunnydale, Calif.) was used to measure the optical density signal for pAKT at 450 nm (OD450 nm). The pAKT OD450 nm readings were normalized by total protein amount in the cell lysates determined by standard methods. […]
Each record here notes measured inhibition at 0.3 µM.
Measured quantity: inhibition at 0.3 µM

INSERT INTO measurements (input_smiles, system_name, measured_quantity, endpoint_result) VALUES
  ('Nc1ccc(-c2csc3c(=O)nc(N4CCOCC4)oc23)cc1', 'PI3K-delta (Homo sapiens, UniProt O00329)', 'inhibition at 0.3 µM', '32%'),
  ('Cc1nc2c(=O)nc(N3CCOCC3)[nH]c2n1-c1ccc(F)cc1', 'PI3K-delta (Homo sapiens, UniProt O00329)', 'inhibition at 0.3 µM', '32%'),
  ('Cc1nc2c(=O)nc(N3CCOCC3)[nH]c2n1Cc1ccccc1', 'PI3K-delta (Homo sapiens, UniProt O00329)', 'inhibition at 0.3 µM', '0%'),
  ('O=c1nc(N2CCOCC2)oc2c(-c3cccnc3)csc12', 'PI3K-delta (Homo sapiens, UniProt O00329)', 'inhibition at 0.3 µM', '0%'),
  ('O=c1nc(N2CCOCC2)oc2c(-c3ccc4c(c3)OCCO4)csc12', 'PI3K-delta (Homo sapiens, UniProt O00329)', 'inhibition at 0.3 µM', '72%'),
  ('O=C(NCCN1CCOCC1)c1cccc(-c2csc3c(=O)nc(N4CCOCC4)oc23)c1', 'PI3K-delta (Homo sapiens, UniProt O00329)', 'inhibition at 0.3 µM', '17%'),
  ('COc1ccc(C#Cc2csc3c(=O)nc(N4CCOCC4)oc23)cc1', 'PI3K-delta (Homo sapiens, UniProt O00329)', 'inhibition at 0.3 µM', '0%'),
  ('COc1cccc(-c2csc3c(=O)nc(N4CCOCC4)oc23)c1', 'PI3K-delta (Homo sapiens, UniProt O00329)', 'inhibition at 0.3 µM', '0%'),
  ('Cc1nc2c(=O)nc(N3CCOCC3)[nH]c2n1-c1ccc2[nH]ccc2c1', 'PI3K-delta (Homo sapiens, UniProt O00329)', 'inhibition at 0.3 µM', '8.7%');

---

Test system: PC3 cells
Assay: PC3 cell proliferation (WST, 72 hours)
Format: cell-based
Conditions: Homo sapiens, PC-3, 72 h, read-out: PC3 cell proliferation(IC50 μM)
Measured quantity: IC50

INSERT INTO assay_data (molecule, system_name, endpoint_result) VALUES
  ('COc1cccc(-c2csc3c(=O)nc(N4CCOCC4)oc23)c1 [Compound 13]', 'PC3 cells', '94 µM');

---

Target: UniProt:P53350
Test: Kinase inhibition assay, P-33 labelled ATP phosphate transfer, PLK-1
Assay type: biochemical
Measured quantity: IC50

INSERT INTO results (input_smiles, endpoint_result) VALUES
  ('O=c1nc(N2CCOCC2)oc2c(-c3ccccc3)csc12', '2.3 µM');

---

Biological target: PI3K-delta (Homo sapiens, UniProt O00329)
Assay: Kinase inhibition assay, P-33 labelled ATP phosphate transfer, PI3K-delta
Assay type: biochemical
Conditions: read-out: PI3K-delta(% Inh at 10 μM)
inhibition at 10 µM: recorded values
Measured quantity: inhibition at 10 µM (%)

INSERT INTO assay_data (input_smiles, unit_name, endpoint_result) VALUES
  ('CCOC(=O)Cn1ncc2c(=O)nc(N3CCOCC3)[nH]c21', '%', 7.2),
  ('O=c1nc(N2CCOCC2)[nH]c2c1cnn2-c1ccccc1', '%', 20),
  ('O=c1nc(N2CCOCC2)[nH]c2c1cnn2CCO', '%', 26),
  ('O=c1nc(N2CCOCC2)[nH]c2c1cnn2-c1ccccn1', '%', 10),
  ('O=c1nc(N2CCOCC2)[nH]c2c1cnn2-c1ccc(Cl)cc1', '%', 0);
